B1: OR4K15 (parent)
chain: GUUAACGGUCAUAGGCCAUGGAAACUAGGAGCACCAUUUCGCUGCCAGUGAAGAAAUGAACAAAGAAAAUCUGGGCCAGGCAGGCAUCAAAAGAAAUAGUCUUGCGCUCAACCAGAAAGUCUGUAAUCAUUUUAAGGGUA

Variants of: B1
Assay Comment: self-cleavage, relative activity (ratio to wild type); higher = more cleavage; in vitro, sequencing; the parent is a self-cleaving ribozyme
Use label 1 when the recorded self-cleavage is no lower than 1; use label 0 when it is lower.

GUUAACGGUCAUAGGCCAUGGAAACUAGGAACACCAUUUCGCUGCCAGUGAAGAGAUGAACAAAGAAAAUCUGGGCCAGGCAGGCAUCAAAAGAAAUAGUCUUGCGCUCAACCAGAAAGUCUGUAAUCAUUUUAAGGGUA [G31A A55G]; label 1
GUUAACGGUCAUAGGCCAUGGAAACUAGGAGCACCAUUUCGCUGCCAGAGAAGAAACGAACAAAGAAAAUCUGGGCCAGGCAGGCAUCAAAAGAAAUAGUCUUGCGCUCAACCAGAAAGUCUGUAAUCAUUUUAAGGGUA [U49A U57C]; label 1
GUUAACGGUCAUAGGCCAUGGAAACUAGGAGCACCAUUUCGCUGCCAGUGAGGAAAUGAACAAAGAAAAUCUGGGCCAGGCAGGCAUCAAAAGAAAUAGUCUUGCGCUCAACCAGAAAGUCUGUGAUCAUUUUAAGGGUA [A52G A125G]; label 0
GUUAACGGUCAUAGGCCAUGGGAACUAGGAGCACCAUUUCGCUGCCAGUGAAGAAAUGAACAAAGAAAAUCUGGGCCAGGCAGGCAUCAAAAGAAAUAGUCUUGCGCUCAACCAGAAAGUCUGUAUUCAUUUUAAGGGUA [A22G A126U]; label 0
GUUAACGGUCAUAGGCCAUGGAAACUAGGAGCACCACUUCGCUGCCAGUGAAGAAAUGAACAAAGAAAAUCUGGGCCAGGCAGGCAUCAAAAGAAAUAGUCUUGCGCUCAACCAGAAAGUCUGUAAUCAUUUUAAGGGUA [U37C]; label 1

Exercise: State whether the measured self-cleavage reaches 1, counting equality as reaching it, for GUUAACGGUCAUAGGCCAUGGAAACUAGGAGCACCAUCUCGCUGCCAGUGAAGAAAUGAACAAAGAAAUUCUGGGCCAGGCAGGCAUCAAAAGAAAUAGUCUUGCGCUCAACCAGAAAGUCUGUAAUCAUUUUAAGGGUA [U38C A69U]
Solution: label 0

Exercise: State whether the measured self-cleavage reaches 1, counting equality as reaching it, for GUUAACGGUCAUAGGCCAUGGAAACUAGGAGCCCCAUUUCGCUGCCAGUGAAGAAAUGAACAAAGAAAAUCUGGGCCAGGCAGGCAUCGAAAGAAAUAGUCUUGCGCUCAACCAGAAAGUCUGUAAUCAUUUUAAGGGUA [A33C A89G]
Solution: label 1

Exercise: State whether the measured self-cleavage reaches 1, counting equality as reaching it, for GUUAACGGCCAUAGGCCAUGGAAACUAGGAGCACCAUUUCGCUGCCAGUGAAGAAAUGAACAAAGAAAAUCUGGGCCAGGCAGGCAUCAAAAGAAAUUGUCUUGCGCUCAACCAGAAAGUCUGUAAUCAUUUUAAGGGUA [U9C A98U]
Solution: label 1

Exercise: State whether the measured self-cleavage reaches 1, counting equality as reaching it, for GUUAACGGUCAUAGGCCAUGGACACUGGGAGCACCAUUUCGCUGCCAGUGAAGAAAUGAACAAAGAAAAUCUGGGCCAGGCAGGCAUCAAAAGAAAUAGUCUUGCGCUCAACCAGAAAGUCUGUAAUCAUUUUAAGGGUA [A23C A27G]
Solution: label 0

Exercise: State whether the measured self-cleavage reaches 1, counting equality as reaching it, for GUUAACGGUCAUAGGCCAUGGAAACUAGGAGCACCAUUUCGCUGCCAGUGAAGAAGUGAACAAAGAAAAUCUGGGCCAGGCAGGCAUCAAAAGAAAUAGUCUUGCGCUCAACCAGAAAGUCUGUAAUCGUUUUAAGGGUA [A56G A129G]
Solution: label 1

Exercise: State whether the measured self-cleavage reaches 1, counting equality as reaching it, for GUUAACGGUCAUAGGCCAUGGAAACUAGGAGCACCAUUUCGCUGCCAGUGAAGAAGUGAACAUAGAAAAUCUGGGCCAGGCAGGCAUCAAAAGAAAUAGUCUUGCGCUCAACCAGAAAGUCUGUAAUCAUUUUAAGGGUA [A56G A63U]
Solution: label 1
